From: paper doi:10.1101/2025.05.29.656781v1

Target: KChIP3 (Homo sapiens)
Sequence (Q9Y2W7 1-256): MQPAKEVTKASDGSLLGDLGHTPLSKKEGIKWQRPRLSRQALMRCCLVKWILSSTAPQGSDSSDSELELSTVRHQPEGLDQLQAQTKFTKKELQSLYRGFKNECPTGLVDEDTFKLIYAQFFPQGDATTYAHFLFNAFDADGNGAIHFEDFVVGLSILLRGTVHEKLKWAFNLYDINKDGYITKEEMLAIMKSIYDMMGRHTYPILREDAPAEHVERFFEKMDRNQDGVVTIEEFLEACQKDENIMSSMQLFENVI
pKd: −log10 of the molar value.

| compound | subject.of.test | pKd |
| --- | --- | --- |
| O=C(Cc1cccc(-c2ccccc2)c1)Nc1cc(Cl)ccc1C(=O)O [compound 1] | KChIP3 (Homo sapiens) | 6.64 |

----------
molecular target: KV4.3/KChIP3 (Homo sapiens, UniProt Q9Y2W7); experiment: whole-cell patch clamp, peak current at +[…] mV
pIC50: −log10 of the molar value.

| compound | pIC50 |
| --- | --- |
| O=C(Cc1cccc(-c2ccccc2)c1)Nc1cc(Cl)ccc1C(=O)O [compound 1] | 7.52 |
